Assay type: in vivo, human (healthy subjects)
Conditions: human, plasma, oral, 12 mg, AUC∞, single 12 mg IR, fasting, n = 11, mean ± SD
endpoint_name: AUC(0-inf) (ng·h/mL)
Give bare numbers, in ng·h/mL.

Requested field: AUC(0-inf). Item: CC[C@@H]1CN(C(=O)NCC(F)(F)F)C[C@@H]1c1cnc2cnc3[nH]ccc3n12 234

* * *

Test: Multiple-dose
Format: in vivo, human (healthy subjects)
Conditions: human, plasma, oral, 30 mg, Cmax, steady state (day 7), 30 mg once-daily ER, fasting, n = 11, mean ± SD
endpoint_name: Cmax (ng/mL)
One number for each entry, in ng/mL.

Requested field: Cmax. Item: CC[C@@H]1CN(C(=O)NCC(F)(F)F)C[C@@H]1c1cnc2cnc3[nH]ccc3n12 68.2

Numbers sourced from paper PMC6585649.
